Origin of measurements: patent US7186710B2

Molecular target: PDE7A1 (Homo sapiens)
Construct: made in house; host or cells: SF21 insect cells (baculovirus, pCRBac)
Sequence (Q13946 whole entry): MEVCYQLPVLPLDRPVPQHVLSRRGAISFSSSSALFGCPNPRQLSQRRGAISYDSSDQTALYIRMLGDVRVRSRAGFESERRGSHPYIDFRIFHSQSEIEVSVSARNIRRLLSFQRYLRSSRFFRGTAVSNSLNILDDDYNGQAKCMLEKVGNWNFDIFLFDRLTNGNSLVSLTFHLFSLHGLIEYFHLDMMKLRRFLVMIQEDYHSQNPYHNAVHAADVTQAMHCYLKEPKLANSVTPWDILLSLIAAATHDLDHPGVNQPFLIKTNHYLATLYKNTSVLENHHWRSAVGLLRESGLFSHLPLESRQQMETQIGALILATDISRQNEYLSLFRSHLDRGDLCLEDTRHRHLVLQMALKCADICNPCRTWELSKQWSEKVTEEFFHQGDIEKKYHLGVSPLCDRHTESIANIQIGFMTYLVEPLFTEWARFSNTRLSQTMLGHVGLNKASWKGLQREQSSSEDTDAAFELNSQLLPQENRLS
Assay: Inhibition of PDE7 activity, [3H]cAMP SPA enzyme assay with recombinant PDE7A1
Format: biochemical
Details: recombinant PDE7A1 from SF21 insect cells, 0.5 μM cAMP, read-out: PDE7 −logIC50 (converted)
ENDPOINT NAME: log10 of IC50 (log10 of the value in µM)

COMPOUND: COc1ccc(C2=NN(CCCCn3ccnc3)C(=O)[C@H]3CC=CC[C@@H]23)cc1Cl.Cl (relative stereo) [Compound 11, hydrochloride]
log10 of IC50: -0.57
--
COMPOUND: COc1ccc(C2=NN(c3ccc4c(c3)COC4=O)C(=O)[C@H]3CC=CC[C@@H]23)cc1Cl (relative stereo)
log10 of IC50: -1.05
--
COMPOUND: COc1ccc(C2=NN(c3nc(-c4cccs4)ns3)C(=O)[C@H]3CC=CC[C@@H]23)cc1Cl (relative stereo)
log10 of IC50: -1.11
--
COMPOUND: COc1ccc(C2=NN(C3CCCC3)C(=O)[C@H]3CC=CC[C@@H]23)cc1Cl (relative stereo)
log10 of IC50: -1.73
--
COMPOUND: COc1ccc(C2=NN(c3ccc4[nH]ncc4c3)C(=O)[C@H]3CC=CC[C@@H]23)cc1Cl.Cl (relative stereo) [Compound 9, hydrochloride]
log10 of IC50: -1.54
--
COMPOUND: COc1ccc(C2=NN(c3ccc4ncsc4c3)C(=O)[C@@H]3CC=CC[C@H]23)cc1Cl (relative stereo)
log10 of IC50: -0.98
--
COMPOUND: COc1ccc(C2=NN(C3CCN(S(=O)(=O)c4ccc(C)cc4)CC3)C(=O)[C@H]3CC=CC[C@@H]23)cc1Cl (relative stereo)
log10 of IC50: -0.97
--
COMPOUND: COc1ccc(C2=NN(c3cc(C)c4c(C)nn(C)c4n3)C(=O)[C@H]3CC=CC[C@@H]23)cc1Cl (relative stereo)
log10 of IC50: -1.38
--
COMPOUND: COc1ccc(C2=NN(CCCCOc3ccc(C(=O)O)cc3)C(=O)[C@H]3CC=CC[C@@H]23)cc1Cl (relative stereo)
log10 of IC50: -1.01
--
COMPOUND: COc1ccc(C2=NN(C3CCN(C(=O)N4CCOCC4)CC3)C(=O)[C@H]3CC=CC[C@@H]23)cc1Cl (relative stereo)
log10 of IC50: -1.64
